Assay: Stability in the presence of fetal calf serum
Format: in vitro ADME
Settings: bovine, fetal calf serum, fetal calf serum 95%, 37° C., 2 h; read-out: Relative concentration of compound (% of initial concentration)
OUTCOME_MEASURE: remaining at 2 h (%)
Number in %, nothing else.

Inquiry: Fill blank: measured remaining at 2 h of the compound COc1cc(NC(C)CCCN)c2ncccc2c1 (stereo not shown) [Primaquine, reference compound] is ____.
Reply text: 87

###

Assay: Hydrolysis in the presence of lysosomal enzymes
Assay type: in vitro ADME, rat
Details: rat, liver lysosomal enzyme fraction, pH 4.5, 1 h, read-out: Relative concentration of primaquine (PQ) from derivative
Procedure: The compounds, at a final concentration of 15 μg/ml, are incubated in 50 mM acetate buffer, pH 4.5, at 37° C. in the presence of 5 mM cysteine and a lysosomal enzyme fraction (0.15 mg protein/ml) purified from rat liver. […] At intervals of time, corresponding samples are taken from the incubation. […] A volume of 20 μl is withdrawn and analyzed directly by HPLC under the standard conditions. […] analyzed by spectrophotometry after HPLC. […] (PQ) and derivatives (PQX) in terms of the incubation time, expressed as […]
OUTCOME_MEASURE: metabolised at 1 h (%)
Number in %, nothing else.

COMPOUND: COc1cc(NC(C)CCCNC(=O)[C@@H]2CCC(=O)N2)c2ncccc2c1 (some centres unmarked)
metabolised at 1 h / %: 0

Now for a further compound.
Inquiry: Fill blank: measured metabolised at 1 h of the compound COc1cc(NC(C)CCCNC(=O)CC[C@H](N)C(=O)O)c2ncccc2c1 (some centres unmarked) is ____.
Reply text: 0
